Target: T1, human ACTH 18-39 (human)
T1 construct: also called CLIP; CLIP (ACTH 18-39)
T1 peptide: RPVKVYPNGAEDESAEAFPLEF
Assay: SPR ProteOn, antibody immobilised
METRIC_NAME: koff (s⁻¹)
Quick note: give the figure in s⁻¹, leave out the unit.

Please give the measured koff for this binder: Ab2 (antibody, human IgG1, kappa, N297A, V domains shown, rabbit/human chimeric antibody, made in HEK-293) VH: QSVEESGGRLVTPGTPLTLTCTVSGFSLSKYDMIWVRQAPGKGLESIGIIYDDGDTYYASWAKGRFTISQTSTTVDLKIISPTTEDTATYFCVKGVSNIWGQGTLVTVSS VL: DVVMTQTPASVEAAVGGTVTIKCQASQSISNYLAWYQQKTGQPPKLLIYSASTLASGVPSRFKGSGSGTEFTLTISDLECADAATYYCQSYEGSSSSSYGVGFGGGTEVVVKR 0.026
